Values from patent US8921319B2

Molecular target: plasma kallikrein (Homo sapiens (Human), UniProt P03952)
Sequence (P03952 391-638): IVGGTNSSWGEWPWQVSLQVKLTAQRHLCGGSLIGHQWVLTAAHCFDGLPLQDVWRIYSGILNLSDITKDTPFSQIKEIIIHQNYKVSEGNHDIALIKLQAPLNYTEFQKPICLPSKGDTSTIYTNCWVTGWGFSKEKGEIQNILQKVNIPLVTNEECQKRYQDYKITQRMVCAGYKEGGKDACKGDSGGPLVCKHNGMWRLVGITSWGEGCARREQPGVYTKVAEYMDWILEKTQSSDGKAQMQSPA
Sequence (P03952 20-390 partner): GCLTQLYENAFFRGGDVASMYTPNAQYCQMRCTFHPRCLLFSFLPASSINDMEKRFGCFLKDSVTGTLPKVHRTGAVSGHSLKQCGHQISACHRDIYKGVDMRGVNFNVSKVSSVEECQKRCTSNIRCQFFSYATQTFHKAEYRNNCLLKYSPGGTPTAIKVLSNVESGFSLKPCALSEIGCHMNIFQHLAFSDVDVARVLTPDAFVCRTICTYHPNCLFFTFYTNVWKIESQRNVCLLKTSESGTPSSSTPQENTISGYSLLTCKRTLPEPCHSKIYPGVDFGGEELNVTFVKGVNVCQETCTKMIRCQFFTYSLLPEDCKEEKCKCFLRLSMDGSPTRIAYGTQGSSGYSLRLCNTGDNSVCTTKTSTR
Assay: Enzyme assay, inhibition constant for human plasma kallikrein (chromogenic substrate, Dixon method)
Conditions: 25° C., Tris HCl buffer pH 8.0, substrate H-D-Pro-Phe-Arg-pNA, mean of at least two measurements; read-out: Ki PK
experimental.readout: log10 Ki (log10 of the value in nM)

• N=C(N)c1ccc(CNC(=O)[C@@H]2Cc3ccc(cc3)CNC(=O)Cc3cccc(c3)CC(=O)NCc3ccc(cc3)C[C@@H](NS(=O)(=O)Cc3ccccc3)C(=O)N2)cc1 = 2.74
• N=C(N)c1ccc(CNC(=O)[C@@H]2Cc3cccc(c3)CNC(=O)Cc3ccc(cc3)CC(=O)NCc3cccc(c3)C[C@@H](NS(=O)(=O)Cc3ccccc3)C(=O)N2)cc1 = 2.13
• N=C(N)c1ccc(CNC(=O)[C@@H]2Cc3cccc(c3)CNC(=O)CN3CCN(CC3)CC(=O)NCc3cccc(c3)C[C@@H](NS(=O)(=O)Cc3ccccc3)C(=O)N2)cc1 = 1.50
• N=C(N)c1ccc(CNC(=O)[C@@H]2Cc3ccc(cc3)CNC(=O)CN3CCN(CC3)CC(=O)NCc3ccc(cc3)C[C@@H](NS(=O)(=O)Cc3ccccc3)C(=O)N2)cc1 = 2.69
• N=C(N)c1ccc(CNC(=O)[C@@H]2Cc3cccc(c3)CNC(=O)Cc3ccccc3CC(=O)NCc3cccc(c3)C[C@@H](NS(=O)(=O)Cc3ccccc3)C(=O)N2)cc1 = 0.95

---

Target: Factor Xa (human) (Homo sapiens (Human), UniProt P00742)
Sequence (P00742 235-488): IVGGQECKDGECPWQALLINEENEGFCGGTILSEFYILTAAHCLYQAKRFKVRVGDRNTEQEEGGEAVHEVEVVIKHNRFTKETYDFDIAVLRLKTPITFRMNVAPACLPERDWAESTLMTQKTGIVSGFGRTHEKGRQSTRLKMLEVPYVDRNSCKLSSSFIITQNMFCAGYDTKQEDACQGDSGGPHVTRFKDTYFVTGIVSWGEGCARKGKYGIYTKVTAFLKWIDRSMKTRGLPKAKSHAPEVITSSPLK
Sequence (P00742 41-179 partner): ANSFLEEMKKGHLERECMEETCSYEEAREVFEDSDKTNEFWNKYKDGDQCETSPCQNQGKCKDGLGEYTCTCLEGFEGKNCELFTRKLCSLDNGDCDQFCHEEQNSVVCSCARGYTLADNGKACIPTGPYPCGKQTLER
Experiment: Enzyme assay, inhibition constant for factor Xa (chromogenic substrate, Dixon method)
Type: biochemical
Conditions: substrate CH3OCO-D-Cha-Gly-Arg-pNA, mean of at least two measurements; read-out: Ki FXa
Recorded Ki for the following compounds
experimental.readout: Ki (µM)

- N=C(N)c1ccc(CNC(=O)[C@@H]2Cc3ccc(cc3)OCCCCOc3ccc(cc3)C[C@@H](NS(=O)(=O)Cc3ccccc3)C(=O)N2)cc1 [Inhibitor 11]: 2.01
- N=C(N)c1ccc(CNC(=O)[C@@H]2Cc3ccc(cc3)CNC(=O)Cc3cccc(c3)CC(=O)NCc3ccc(cc3)C[C@@H](NS(=O)(=O)Cc3ccccc3)C(=O)N2)cc1 [Inhibitor 3]: 5.7
- N=C(N)c1ccc(CNC(=O)[C@@H]2Cc3cccc(c3)CNC(=O)Cc3cccc(c3)CC(=O)NCc3cccc(c3)C[C@@H](NS(=O)(=O)Cc3ccccc3)C(=O)N2)cc1 [Inhibitor 5]: 0.0421
- N=C(N)c1ccc(CNC(=O)[C@@H]2Cc3cn(nn3)Cc3cccc(c3)Cn3cc(nn3)C[C@@H](NS(=O)(=O)Cc3ccccc3)C(=O)N2)cc1 [Inhibitor 1]: 0.206
- N=C(N)c1ccc(CNC(=O)[C@@H]2CCC(=O)NCc3cccc(c3)CNC(=O)CC[C@@H](NS(=O)(=O)Cc3ccccc3)C(=O)N2)cc1 [Inhibitor 13]: 3.43
- N=C(N)c1ccc(CNC(=O)[C@@H]2Cc3ccc(cc3)CNC(=O)Cc3ccc(cc3)CC(=O)NCc3ccc(cc3)C[C@@H](NS(=O)(=O)Cc3ccccc3)C(=O)N2)cc1 [Inhibitor 4]: 9.37
